Assay: soluble on expression in E. coli; label from the status in PepcDB or PDB records
METRIC_NAME: soluble on expression in E. coli

Recorded results for 6 sequences are shown here.
- RESIDUE_SEQUENCE: "MSLEQKILAQGALEAARRRQSEQEKALLLSQLKQLQSQMEPHFLFNTLANINALIAVEPYKAQLMLEKFTELLRGTMRLRRTNTGDLREEMQLIDAYLGIQKIRLGERLEYTLPELSELGTLGMPPMLIQPLVENAVSHGIEPKAEGGTIRVRIEVADDWFELSVEDNGMGLSDTPKGNGIALQNVRDRLSGLFGHEGLLTVAQNCSGGVTATLRIRLHHLQGLQRSFYDYSQARSPQSEGHHHHHH"
  soluble on expression in E. coli: "soluble"
- RESIDUE_SEQUENCE: "MSSFFPLPPAIGKSTGCGVRDESQSLVVWAIEDYSIPESIDPDMINLKIETAIVKKFNLRSSAVVTTWIFGSAENAWLAKSKVKLWESEFRVSLHKGGDKRARLNMMLADVIYYVWNWKAPTNLAVLTENKEEMEQDPKFFRFRQALENKGFFVAVEHPETLINQETAVEDPPDDSPIPYYPSDNPQKLAFWYKEDSEAYRAKYKQVRGTKRTI"
  soluble on expression in E. coli: "soluble"
- RESIDUE_SEQUENCE: "KTNTEQFCSDCHMNDVVPEYRASAHYSNRSGVKAVCADCHVPHEFAPKMLRKLQASTEVYAHLTGKVDNKEKFEAHRLAMAEREWARMKANNSQECRNCHNFEDMDFTQQKTVAQQMHSRAETENKTCIDCHKGIAHNLPHMEKVQKSFIPDDMIKKTEKATEIK"
  soluble on expression in E. coli: "not soluble"
- RESIDUE_SEQUENCE: "MGSDKIHHHHHHMCYNNSMNERYIRFNPNIAKQKPSNKDKCPFCDKSQLGKILDVKDDMIWVENKYPTLEETYQTLVIESNDHNGDISVYSESKMRQLLDYLLSKWQLMEESGHYRSVVLYRNFGPLSGGSLRHPHSQIVGLKNVDAYETLNLDWFDGIEVCSETSQQAEISIANRPMLDFTEFTIKVSKLENAILIADSLPILCHYILNEFLGGRCKSYNLFFYKHDGGLICKIVPRFIVSPYQIGYAIHQVNLPDELEKIKEALRAKYYL"
  soluble on expression in E. coli: "not soluble"
- RESIDUE_SEQUENCE: "SRQWSQTLCEMSESEDDDIPQLSSHTLAALQEFYAEQKQSVNPRGDDKYNVGVIEENWQLSQFWYSQDTALRLAREAIDAAGEGGRIACVSAPSVYQKLRELCREDSSVYIFEYDRRFAIYGDEFIFYDYNHPLELPERIAAHSFDLVVADPPYLSEECLRKTSETIQFLTRGKILLCTGAIMEEQAAQLLGVKMCKFIPEHSRNLANEFRCYTNYDSGLDCEA"
  soluble on expression in E. coli: "soluble"
- RESIDUE_SEQUENCE: "AQELQTANEFTVHTDLSSISSTRAFLKEKHKAAKHIGVRADIPFDANQGIRLEAGFGRSKKNIINLETDENKLGKTKNVKLPTGVPENRIDLYTGYTYTQTLSDSLNFRVGAGLGFESSKDSIKTTKHTLHSSRQSWLAKVHADLLSQLGNGWYINPWSEVKFDLNSRYKLNTGVTNLKKDINQKTNGWGFGLGANIGKKLGESASIEAGPFYKQRTYKESGEFSVTTKSGDVSLTIPKTSIREYGLRVGIKF"
  soluble on expression in E. coli: "soluble"

q: I have this sequence here, `MHGKDPFSDFREFINTMESRVQELGKAYGVEHLAGPQGFAVRYLFENQDKEIFIKDIEKKLSISKSVASNLVKRMEKNGFVELVTSDKDKRYKYVHLTDLGKKKAQDVGHFREAIHGQLLDGISKEDAETAFRVFHQIRKNLEKNKELEHHHHHH` , and I need its recorded soluble on expression in E. coli.
a: soluble

====

Test: soluble on expression in E. coli; label from the status in PepcDB or PDB records
METRIC_NAME: soluble on expression in E. coli

- RESIDUE_SEQUENCE: "ATCYCRTGRCATRESLSGVCEISGRLYRLCCR"
  EXPERIMENTAL_RESULT: "soluble"
- RESIDUE_SEQUENCE: "MDNCNAWDKLLSQNESTINSTETATITAIIYSPSSKTLHQFINICFPEGSNSILDTTLINYATIGWTNDLKENYSVDVYTLIRNTDDALDLLKPFLQEHSSKVRWLILLDWTLNDQKLWLNELSYAFNKIKQLNDDNEFSVWCLNSGEILNLQRHTTVWQSVHIDFILQTLRSFCYFNDSSLFYICEDHTEEKREEAQRLKYQELLKHFCEDRDMKDHIEMVKRSEILIPKGCDSIGLIKTVDERFEPTEVKEQHFLARYMDFIPTIDKIREDRKTTSGIDLDKLYPLEVFKVNIQEELGKMFAKYRENSRI"
  EXPERIMENTAL_RESULT: "soluble"
- RESIDUE_SEQUENCE: "MDFSGKNVWVTGAGKGIGYATALAFVEAGAKVTGFDQAFTQEQYPFATEVMDVADAAQVAQVCQRLLAETERLDALVNAAGILRMGATDQLSKEDWQQTFAVNVGGAFNLFQQTMNQFRRQRGGAIVTVASDAAHTPRIGMSAYGASKAALKSLALSVGLELAGSGVRCNVVSPGSTDTDMQRTLWVSDDAEEQRIRGFGEQFKLGIPLGKIARPQEIANTILFLASDLASHITLQDIVVDGGSTLGA"
  EXPERIMENTAL_RESULT: "soluble"

====

Assay: soluble on expression in E. coli; label from the status in PepcDB or PDB records
METRIC_NAME: soluble on expression in E. coli

- RESIDUE_SEQUENCE: "MKPIDRFSYLKNNRVSQDTSSLVQCYLPIIGQEALSLYLYTISFWDNGRKEYLFSSILNHLNFGMDRLIKSLKILSAFNLLTLYQKGDVYQLALHAPLSSQDFLGHPVYRRLLEKKIGDVAVEDLKVESADGEEIPVSLNQVFPELAELGSQEDLGLKKKVANDFDLEHFRQLMARDGLRFADEQSDVLNLFAIAEEKKWTWFETYQLAKSTAVSQVISTKRMREKIAQKPVSSDFSLKEATIIKEAKSKTALQFLAEIKQTRKGTITQTERELLQQMAGLGLLDEVINIILLLTFNKVDSANINEKYAMKVANDYAYQKIHSAEEAVLRIRDRGQKAKTQKQNQTAPEKTNVPKWSNPEYKNETSEETRLELERKKQELLARLEKG"
  soluble on expression in E. coli: "soluble"
- RESIDUE_SEQUENCE: "MKFLPLLALLISPFVSALTLDDLQQRFTEQPVIRAHFDQTRTIKDLPQPLRSQGQMLIARDQGLLWDQTSPFPMQLLLDDKRMVQVINGQPPQIITAENNPQMFQFNHLLRALFQADRKVLEQNFRVEFADKGEGRWTLRLTPTTTPLDKIFNTIDLAGKTYLESIQLNDKQGDRTDIALTQHQLTPAQLTDDERQRFAAQ"
  soluble on expression in E. coli: "not soluble"
- RESIDUE_SEQUENCE: "GIYQHFSIEDRPFLDKGMEWIKKVEDSYAPFLTPFINPHQEKLLKILAKTYGLACSSSGEFVSSEYVRVLLYPDYFQPEFSDFEISLQEIVYSNKFEYLTHAKILGTVINQLGIERKLFGDILVDEERAQIMINQQFLLLFQDGLKKIGRIPVSLEERPFTEKID"
  soluble on expression in E. coli: "soluble"
- RESIDUE_SEQUENCE: "TEERLKEIEAKYDEIAKDWPKKVKHVLHEEHELELTRVQVYTCDKCEEEGTIWSYHCDECDFDLHAKCALNEDTKE"
  soluble on expression in E. coli: "soluble"
- RESIDUE_SEQUENCE: "SNAMHNHNNRLVITPGEPAGVGPDLAITLAQQDWPVELVVCADPALLLARASQLNLPLQLREYQADQPAIAQQAGSLTILPVKTAVNVVPGKLDVGNSHYVVETLAKACDGAISGEFAALVTGPVQKSIINDAGIPFIGHTEFFADRSHCQRVVMMLATEELRVALATTHLPLLAVPGAITQASLHEVITILDNDLKTKFGITQPQIYVCGLNPHAGEGGHMGHEEIDTIIPALNTLRQQGINLIGPLPADTLFQPKYLQHADAVLAMYHDQGLPVLKYQGFGRAVNITLGLPFIRTSVDHGTALELAATGTADVGSFITALNLAIKMINNSNE"
  soluble on expression in E. coli: "soluble"

Here is another sequence to look at.
q: I have this sequence here, `MGSDKIHHHHHHMSDITHTGEHQALVVGATGIIGSAILHRLGAAEGWTAIGLSRSRRVAEGRARMLEVDLLDPQDCARKLGALNRITHIFYAAYQARPSRAEEVAPNVQMLRNVVDAVSGRARGLKKIVLITGAKFYGIQWGRVKTPMKETDARQLPPNFYYDQEDFLRDAQRQADWHWCNLIPPFVSGYSVGNPMNLVMAIGVFASLSRELNLPLRFPGLPGAWSALQQIADAEQIAAAAHWAATSPAANNEAFNVTNGDPIRWENFWPAVAGHFGMRLEAPKTLPLGRLMADNEAAWARMVERYRLQAASIAKLVDWNWADYMFRMEYDVLMETGKIRRAGFQDCVDTTERFLARFRQLQQQQIIPR` , and I need its recorded soluble on expression in E. coli.
a: not soluble

Origin of measurements: the DeepSol protein solubility set
